Exercise: for every item that follows, state its recorded IC50.
# system tested: recombinant human EGFR L858R/C797S double mutant protein (Homo sapiens (Human), UniProt P00533, C797S/L858R)
# Sequence (P00533 25-1210 C797S/L858R): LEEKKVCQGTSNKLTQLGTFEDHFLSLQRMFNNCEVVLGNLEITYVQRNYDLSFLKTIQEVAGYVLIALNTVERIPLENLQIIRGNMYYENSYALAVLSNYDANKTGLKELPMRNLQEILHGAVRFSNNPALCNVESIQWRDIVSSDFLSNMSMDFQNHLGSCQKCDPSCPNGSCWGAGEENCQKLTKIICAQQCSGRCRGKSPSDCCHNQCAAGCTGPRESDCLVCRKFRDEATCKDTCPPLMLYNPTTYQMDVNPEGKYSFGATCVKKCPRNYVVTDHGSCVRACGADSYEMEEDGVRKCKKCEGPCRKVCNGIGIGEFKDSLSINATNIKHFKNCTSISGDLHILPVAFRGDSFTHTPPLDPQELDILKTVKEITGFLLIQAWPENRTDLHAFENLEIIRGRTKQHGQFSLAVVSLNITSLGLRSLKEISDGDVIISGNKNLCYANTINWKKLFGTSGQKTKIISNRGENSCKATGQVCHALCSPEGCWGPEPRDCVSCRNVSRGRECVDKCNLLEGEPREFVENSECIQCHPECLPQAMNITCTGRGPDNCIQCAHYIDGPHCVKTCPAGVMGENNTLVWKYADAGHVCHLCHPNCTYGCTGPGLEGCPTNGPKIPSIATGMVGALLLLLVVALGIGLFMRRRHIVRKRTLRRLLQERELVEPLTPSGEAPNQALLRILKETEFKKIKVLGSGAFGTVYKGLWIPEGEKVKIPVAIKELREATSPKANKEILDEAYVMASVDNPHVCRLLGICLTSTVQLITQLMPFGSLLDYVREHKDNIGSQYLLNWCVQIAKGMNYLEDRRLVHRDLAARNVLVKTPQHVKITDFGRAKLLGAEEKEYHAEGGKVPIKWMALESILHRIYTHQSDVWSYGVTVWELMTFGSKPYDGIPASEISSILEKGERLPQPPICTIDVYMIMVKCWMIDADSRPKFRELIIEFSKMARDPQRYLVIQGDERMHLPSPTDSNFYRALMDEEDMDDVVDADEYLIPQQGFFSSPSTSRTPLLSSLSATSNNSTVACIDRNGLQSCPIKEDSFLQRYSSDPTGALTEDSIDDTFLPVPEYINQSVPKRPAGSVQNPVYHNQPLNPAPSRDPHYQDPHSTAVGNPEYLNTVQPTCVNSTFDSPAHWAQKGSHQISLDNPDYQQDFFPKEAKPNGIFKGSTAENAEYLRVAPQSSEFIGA
# protocol: Biological Activity Assay B: biochemical assay against EGFR L858R/C797S protein (EGFR LR/CS)
Give bare numbers, in nM.

O[C@H]1C[C@H](Cn2cc(-c3ncnc4oc(-c5ccccc5)cc34)c(-c3ccc(F)cc3)n2)C1 [Example 43] : 0.39
CC(C)(O)Cn1nc(-c2ccc(F)cc2)c(-c2ncnc3oc(-c4ccccc4)cc23)n1 [Example 88] : 1.22

The following compounds each have a reported value; give each one's IC50.
1. Fc1ccc(-c2n[nH]cc2-c2ncnc3oc(-c4ccccc4)cc23)cc1 [Example 60]
2. CC(C)(O)Cn1cc(-c2ncnc3oc(-c4ccccc4)cc23)c(-c2ccccc2)n1 [Example 110]

Key:
[0.526, 0.69]

###

# system tested: recombinant human EGFR exon 19 deletion/C797S double mutant protein (Homo sapiens (Human), UniProt P00533, C797S/DEL746-750)
# Sequence (P00533 other isoform, or with tags, fused parts or gaps C797S/del 1-668/del 746-750 limits assumed): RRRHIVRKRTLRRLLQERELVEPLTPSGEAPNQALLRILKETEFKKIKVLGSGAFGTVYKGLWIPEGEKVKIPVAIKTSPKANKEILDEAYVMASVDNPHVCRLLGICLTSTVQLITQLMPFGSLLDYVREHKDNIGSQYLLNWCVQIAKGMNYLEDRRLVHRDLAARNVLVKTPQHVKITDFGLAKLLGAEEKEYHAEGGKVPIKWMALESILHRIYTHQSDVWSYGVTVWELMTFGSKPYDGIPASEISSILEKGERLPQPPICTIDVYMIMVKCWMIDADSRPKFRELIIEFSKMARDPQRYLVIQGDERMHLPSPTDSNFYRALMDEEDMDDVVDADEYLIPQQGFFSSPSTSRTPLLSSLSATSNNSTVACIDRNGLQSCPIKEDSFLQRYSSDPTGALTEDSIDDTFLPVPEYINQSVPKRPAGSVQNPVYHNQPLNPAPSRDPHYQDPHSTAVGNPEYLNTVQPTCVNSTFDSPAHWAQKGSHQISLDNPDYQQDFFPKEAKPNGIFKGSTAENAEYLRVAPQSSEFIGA
# protocol: Biological Activity Assay C: biochemical assay against EGFR exon 19 deletion/C797S protein (EGFR d19/CS)
Strictly below 0.7 nM in IC50: YES. Otherwise: NO.

Known results for compounds:
CC(=O)N1CC=C(c2cc3c(-c4cn(CC(C)(C)O)nc4-c4ccc(F)cc4)ncnc3o2)CC1 : YES
Fc1ccc(-c2nn(CC3COC3)cc2-c2ncnc3oc(-c4ccccc4)cc23)cc1 : YES
Fc1ccc(-c2nn([C@H]3C[C@@H](F)C3)cc2-c2ncnc3oc(-c4ccccc4)cc23)cc1 : NO
Fc1ccc(-c2nn(C3CC(F)(F)C3)cc2-c2ncnc3oc(-c4ccccc4)cc23)cc1 : NO

Exercise: API: query returns whether the compound falls strictly under 0.7 nM in IC50. Query: "CS(=O)(=O)[C@H]1C[C@H](n2cc(-c3ncnc4oc(-c5ccccc5)cc34)c(-c3ccc(F)cc3)n2)C1"
Key: NO

Exercise: Further, for "COc1ccc(-c2cc3c(-c4cn(CC(C)(C)O)nc4-c4ccc(F)cc4)ncnc3o2)nc1" ?
Key: YES

Exercise: Further, for "OCCCn1cc(-c2ncnc3sc(-c4ccccc4)cc23)c(-c2ccc(F)cc2)n1" ?
Key: NO

Exercise: Further, for "CC(C)(O)Cn1cc(-c2ncnc3oc(-c4ccc(F)cn4)cc23)c(-c2ccc(F)cc2)n1" ?
Key: YES

Exercise: Further, for "Cc1ccccc1-c1cc2c(-c3cn(C4CS(=O)(=O)C4)nc3-c3ccc(F)cc3)ncnc2o1" ?
Key: YES

Exercise: Further, for O=S1(=O)CCC[C@@H](n2cc(-c3ncnc4oc(-c5ccccc5)cc34)c(-c3ccc(F)cc3)n2)C1 (single isomer, unassigned) ?
Key: NO

Exercise: Further, for "Cn1cnc(-c2cc3c(-c4cn(CC(C)(C)O)nc4-c4ccc(F)cc4)ncnc3o2)c1" ?
Key: YES

Exercise: Further, for "O[C@H]1C[C@H](Cn2cc(-c3ncnc4oc(-c5ccccc5)cc34)c(-c3ccc(F)cc3)n2)C1" ?
Key: YES

Exercise: Further, for Fc1ccc(-c2nn([C@H]3CCCCC3(F)F)cc2-c2ncnc3oc(-c4ccccc4)cc23)cc1 (single isomer, unassigned) ?
Key: NO

Exercise: Further, for "Cn1cnc(-c2cc3c(-c4cn(CCC(F)F)nc4-c4ccc(F)cc4)ncnc3o2)c1" ?
Key: YES
